- System: HepG2 cells
- METHOD NOTES: Cytotoxicity by neutral red (NR) uptake
- Type: cell-based, human
- MEASUREMENT SETUP: HepG2; 2 µg/mL; 24 h
This section presents compounds with their documented NR uptake (lysosomal activity), % of control values.
PROPERTY NAME: NR uptake (lysosomal activity), % of control

COMPOUND: CCCCCCCCCCCCCC[P+](c1ccccc1)(c1ccccc1)c1ccccc1 [Compound 1e, Triphenyl(tetradecyl)phosphonium bromide]
STUDY TARGET: HepG2 cells
RESULT: 72.84 ± 7.906% (****)
//
COMPOUND: CC[C@H]1OC(=O)[C@H](C)[C@@H](O[C@H]2C[C@@](C)(OC)[C@@H](O)[C@H](C)O2)[C@H](C)[C@@H](O[C@@H]2O[C@H](C)C[C@H](N(C)C)[C@H]2O)[C@](C)(O)C[C@@H](C)C(=O)[C@H](C)[C@@H](O)[C@]1(C)O [[ERY], erythromycin, reference compound]
STUDY TARGET: HepG2 cells
RESULT: 108.4 ± 4.998% (ns)

###

- System: S. aureus CECT 976
- METHOD NOTES: MIC/MBC by broth microdilution, S. aureus CECT 976
- Type: cell-based
- MEASUREMENT SETUP: Staphylococcus aureus, CECT976; S. aureus CECT 976; broth microdilution, 24 h, 37 °C; read-out: MIC
# note: exactly 4 mg/L is not below, so it is condition not met; use condition met for MIC strictly under it

COMPOUND: CCCCCCCCCC[n+]1ccccc1.[Br-] [Compound 6c, 1-Decylpyridin-1-ium bromide]
CATEGORY LABEL: condition not met
--
COMPOUND: CCCCCCCCCCCCCCCC[N+](CC)(CC)CC.[Br-]
CATEGORY LABEL: condition not met
--
COMPOUND: CCCCCCCCCC[n+]1ccc2ccccc2c1.[Br-] [Compound 3c, 2-Decylisoquinolin-2-ium bromide]
CATEGORY LABEL: condition not met
--
COMPOUND: CCCCCC[n+]1ccccc1.[Br-] [Compound 6a, 1-Hexylpyridin-1-ium bromide]
CATEGORY LABEL: condition not met
--
COMPOUND: CCCCCCCCCCCCCCCCCC[n+]1ccn(C)c1.[Br-]
CATEGORY LABEL: condition not met
--
COMPOUND: CCCCCCCCCCCC[n+]1ccc(C)cc1.[Br-] [Compound 4d, 1-Dodecyl-4-methylpyridin-1-ium bromide]
CATEGORY LABEL: condition met
--
COMPOUND: CCCCCCCC[n+]1ccccc1.[Br-] [Compound 6b, 1-Octylpyridin-1-ium bromide]
CATEGORY LABEL: condition not met
--
COMPOUND: CCCCCC[P+](c1ccccc1)(c1ccccc1)c1ccccc1 [Compound 1a, Hexyltriphenylphosphonium bromide]
CATEGORY LABEL: condition not met
--
COMPOUND: CCCCCCCCCCCCCCCC[P+](c1ccccc1)(c1ccccc1)c1ccccc1 [Compound 1f, Hexadecyltriphenylphosphonium bromide]
CATEGORY LABEL: condition met
--
COMPOUND: CCCCCC[n+]1ccc2ccccc2c1.[Br-] [Compound 3a, 2-Hexylisoquinolin-2-ium bromide]
CATEGORY LABEL: condition not met
--
COMPOUND: CCCCCC[N+](CC)(CC)CC.[Br-] [Compound 7a, N,N,N-Triethylhexan-1-aminium bromide]
CATEGORY LABEL: condition not met
--
COMPOUND: CCCCCCCC[n+]1ccc(C)cc1.[Br-] [Compound 4b, 4-Methyl-1-octylpyridin-1-ium bromide]
CATEGORY LABEL: condition not met
--
COMPOUND: CCCCCCCCCCCCCC[P+](c1ccccc1)(c1ccccc1)c1ccccc1 [Compound 1e, Triphenyl(tetradecyl)phosphonium bromide]
CATEGORY LABEL: condition met
--
COMPOUND: CCCCCC[n+]1cccc2ccccc21.[Br-] [Compound 5a, 1-Hexylquinolin-1-ium bromide]
CATEGORY LABEL: condition not met
--
COMPOUND: CCCCCCCCCCCCCCCCCC[n+]1ccccc1.[Br-] [Compound 6g, 1-Octadecylpyridin-1-ium bromide]
CATEGORY LABEL: condition not met
--
COMPOUND: CCCCCCCCCCCCCC[n+]1ccc(C)cc1.[Br-]
CATEGORY LABEL: condition met
--
COMPOUND: CCCCCCCCCCCCCC[n+]1ccn(C)c1.[Br-]
CATEGORY LABEL: condition met
--
COMPOUND: CCCCCCCC[n+]1ccn(C)c1.[Br-]
CATEGORY LABEL: condition not met
--
COMPOUND: CCCCCCCCCCCC[n+]1ccccc1.[Br-] [Compound 6d, 1-Dodecylpyridin-1-ium bromide]
CATEGORY LABEL: condition met
--
COMPOUND: CCCCCCCC[P+](c1ccccc1)(c1ccccc1)c1ccccc1 [Compound 1b, Octyltriphenylphosphonium bromide]
CATEGORY LABEL: condition met
--
COMPOUND: CCCCCCCCCC[n+]1ccc(C)cc1.[Br-] [Compound 4c, 1-Decyl-4-methylpyridin-1-ium bromide]
CATEGORY LABEL: condition not met
--
COMPOUND: CCCCCCCC[N+](CC)(CC)CC.[Br-] [Compound 7b, N,N,N-Triethyloctan-1-aminium bromide]
CATEGORY LABEL: condition not met
